Reference for the values: paper PMC12040169

Assay: in vitro
Details: human, hela cells, % viability
endpoint: viability at 28.5 h, 10 µM (%)
Respond numerically; units are % and should not be typed.

In: Respond only with viability at 28.5 h, 10 µM recorded for O=[N+]([O-])c1ccc(Oc2ccccc2)nc1
Out: 85.8

In: Respond only with viability at 28.5 h, 10 µM recorded for O=C(c1ccc2ccccc2c1)C12CN3CN(CN(C3)C1)C2
Out: 89.1

In: Respond only with viability at 28.5 h, 10 µM recorded for O=C(CSc1n[nH]c(=O)[nH]c1=O)N/N=C/c1ccc(O)cc1
Out: 95.4

In: Respond only with viability at 28.5 h, 10 µM recorded for CCOC(=O)N1CCC(NS(=O)(=O)c2cn(C)c(=O)n(C)c2=O)CC1
Out: 89.1

In: Respond only with viability at 28.5 h, 10 µM recorded for Fc1ccc(-c2cncc(NCc3ccncc3)n2)cc1Cl
Out: 94.7

----------
Experiment: in vitro
Conditions: human, hela cells, % viability
endpoint: viability at 28.5 h, 10 µM
Form field: result (number plus unit)

In: Respond only with viability at 28.5 h, 10 µM recorded for Cc1ccc(Cn2ccsc2=NC(=O)c2cc(S(=O)(=O)N3CCOCC3)ccc2C)cc1 [CBK296935]
Out: 101%

In: Respond only with viability at 28.5 h, 10 µM recorded for COc1ccccc1CN(Cc1cccnc1)C(=O)CCn1cnnn1 [CBK307106]
Out: 90.4%

In: Respond only with viability at 28.5 h, 10 µM recorded for CN1CCN(CCOC(=O)N2CCSCC2)CC1 [CBK200288]
Out: 94.7%

In: Respond only with viability at 28.5 h, 10 µM recorded for COc1ccc(-c2ccc(OC)cc2C(=O)Nc2ccc3c(c2)OCC(=O)N3)cc1 [CBK285821]
Out: 101%

In: Respond only with viability at 28.5 h, 10 µM recorded for Nc1nonc1C(=O)NCc1cccnc1 [CBK025695]
Out: 95.9%

In: Respond only with viability at 28.5 h, 10 µM recorded for CCN(CC(=O)N1CCN(C(=O)c2ccc(C)cc2)CC1)C(=O)OC [CBK027051]
Out: 82%

In: Respond only with viability at 28.5 h, 10 µM recorded for COCCn1c(SCc2cn3c(C)cccc3n2)nc(C)c1C [CBK304050]
Out: 83.9%

In: Respond only with viability at 28.5 h, 10 µM recorded for Nc1ccc(Cc2ccc(N)c(O)c2)cc1O [CBK261149]
Out: 100%

In: Respond only with viability at 28.5 h, 10 µM recorded for CN(C)S(=O)(=O)N1CCC(C(=O)O)(c2ccccc2)CC1 [CBK286681]
Out: 90.3%

In: Respond only with viability at 28.5 h, 10 µM recorded for CN1CC(=O)N2CCOC(C2)c2cccc(n2)NC(=O)C/C=C/CC2(CCN(Cc3ncc[nH]3)CC2)C1=O (stereo not shown) [CBK292196]
Out: 103%

----------
Test: in vitro
Conditions: human, hela cells, % viability
endpoint: viability at 28.5 h, 10 µM (%)
Respond numerically; units are % and should not be typed.

In: Respond only with viability at 28.5 h, 10 µM recorded for Cc1c(C(=O)C2=C(O)C(=O)N(CCN3CCOCC3)C2c2ccccn2)cnn1-c1ccccc1 (centres unmarked)
Out: 112

In: Respond only with viability at 28.5 h, 10 µM recorded for CC(=O)NCC(=O)N1CCC2(CC1)CC(=O)c1cc(Br)ccc1O2
Out: 106

In: Respond only with viability at 28.5 h, 10 µM recorded for C1=CC2CC1CC2CN1CCC(N(CCc2ccccc2)Cc2ccccc2)CC1 (centres unmarked) [CBK264613G]
Out: 87.7

In: Respond only with viability at 28.5 h, 10 µM recorded for CC(=O)N[C@H](C(=O)N1CCC2(C/C=C/C[C@H]3COCC[C@H]3NC(=O)[C@@H](CC(C)C)NC2=O)CC1)[C@@H](C)OC(C)(C)C
Out: 90.7

In: Respond only with viability at 28.5 h, 10 µM recorded for O=C(CC(NC(=O)c1ccccc1)c1ccccc1)Nc1cccc2ccccc12 (centres unmarked)
Out: 98.9

In: Respond only with viability at 28.5 h, 10 µM recorded for CC(=O)Nc1cccc(NC(=O)CSc2ccc(C(F)(F)F)cc2[N+](=O)[O-])c1
Out: 103

In: Respond only with viability at 28.5 h, 10 µM recorded for O=C(Nc1scc(-c2ccc(-c3ccccc3)cc2)c1C(=O)O)c1ccco1
Out: 108

In: Respond only with viability at 28.5 h, 10 µM recorded for FC(F)(F)c1ccc(CN2CCCN(c3nccc(OCc4ccc(Cl)c(Cl)c4)n3)CC2)cc1
Out: 94.5

----------
Experiment: in vitro
Conditions: human, hela cells, % viability
For each of the molecules below, state its viability at 28.5 h, 10 µM.
Respond numerically; units are % and should not be typed.

In: Respond only with viability at 28.5 h, 10 µM recorded for c1ccc(CSc2nnc3ccc(-c4ccncc4)nn23)cc1
Out: 86.5

In: Respond only with viability at 28.5 h, 10 µM recorded for O=C(O)CCC(=O)Nc1cccc(C(=O)Nc2cccc(Cl)c2)c1
Out: 89.8

In: Respond only with viability at 28.5 h, 10 µM recorded for CCN1CC2(CCC1=O)CCN(Cc1nnc(-c3cccnc3)o1)CC2
Out: 92.6

In: Respond only with viability at 28.5 h, 10 µM recorded for NC(=O)c1ccccc1NC(=O)CN1CCN(Cc2cccc(Cl)c2)CC1
Out: 103

In: Respond only with viability at 28.5 h, 10 µM recorded for CCOc1ccc(C(N)CC(=O)O)cc1 (stereo not drawn) [CBK262933C]
Out: 82.4

In: Respond only with viability at 28.5 h, 10 µM recorded for COc1cncc(-c2ccc(Nc3ccc(OC)nc3)nc2)c1
Out: 103

In: Respond only with viability at 28.5 h, 10 µM recorded for c1ccc(-c2nn3c(CN4CCOCC4)nnc3c3ccccc23)cc1
Out: 89

In: Respond only with viability at 28.5 h, 10 µM recorded for Cn1c(=O)ccn([C@@H]2O[C@H](CO)[C@H](O)C2O)c1=O (stereo partly drawn)
Out: 104

In: Respond only with viability at 28.5 h, 10 µM recorded for CCNC(=O)O[C@@H]1CO[C@H]2[C@@H]1OC[C@@H]2NC(=O)c1ccc(C)cc1
Out: 106

In: Respond only with viability at 28.5 h, 10 µM recorded for O=C(O)CSc1nc2ccccc2n1CC(=O)O
Out: 102

In: Respond only with viability at 28.5 h, 10 µM recorded for CC(=O)Nc1ccc(C(=O)NCc2ccc(OCC(F)(F)F)cc2)cc1
Out: 98

In: Respond only with viability at 28.5 h, 10 µM recorded for CC1CCc2c(sc(NC(=O)c3cccs3)c2C#N)C1 (stereo not drawn)
Out: 101

In: Respond only with viability at 28.5 h, 10 µM recorded for COc1cc(-c2nc(N)n[nH]2)cc(OC)c1OC
Out: 103

In: Respond only with viability at 28.5 h, 10 µM recorded for Clc1ccccc1CN1CCC(n2cnc3cccnc32)CC1
Out: 105

In: Respond only with viability at 28.5 h, 10 µM recorded for CC(C)c1ccc(S(=O)(=O)n2c(=O)n(CCc3c[nH]c4ccccc34)c3ccccc32)cc1
Out: 87.4

In: Respond only with viability at 28.5 h, 10 µM recorded for O=C(O)CCN1C(=O)COc2ccc(Cl)cc21
Out: 107

In: Respond only with viability at 28.5 h, 10 µM recorded for C/C(=N/Nc1ccc([N+](=O)[O-])cc1[N+](=O)[O-])C1CC1
Out: 104

In: Respond only with viability at 28.5 h, 10 µM recorded for COc1cccc(COc2cnc(-c3ccccc3)c(N)n2)c1OC
Out: 101

In: Respond only with viability at 28.5 h, 10 µM recorded for O=C(NC(c1ccc2c(c1)CCO2)C1CC(O)C1)c1cccc(=O)[nH]1 (stereo not drawn)
Out: 86.2

In: Respond only with viability at 28.5 h, 10 µM recorded for FC(F)(F)c1ccnc(Sc2ccncc2)c1
Out: 92.3

In: Respond only with viability at 28.5 h, 10 µM recorded for COc1ccc(CCN2CCCCC2Cn2cncn2)cc1 (stereo not drawn)
Out: 108

In: Respond only with viability at 28.5 h, 10 µM recorded for Cc1n[nH]c(O)c1C(c1ccc(Br)o1)c1c(C)n[nH]c1O
Out: 102

In: Respond only with viability at 28.5 h, 10 µM recorded for O=S(=O)(c1cccs1)N1CCC2(CC1)OCCO2
Out: 95.1

In: Respond only with viability at 28.5 h, 10 µM recorded for Cc1nn(C)cc1CN1CCN(CC2(c3ccccc3)CC2)CC1
Out: 105

In: Respond only with viability at 28.5 h, 10 µM recorded for CC(=O)N1C[C@H]2CCCN(S(=O)(=O)c3ccc(Cl)s3)[C@H]2C1
Out: 105

In: Respond only with viability at 28.5 h, 10 µM recorded for COc1ccc2[nH]c3c(=O)n(C)cnc3c2c1
Out: 85.8

In: Respond only with viability at 28.5 h, 10 µM recorded for O=c1[nH]c2ccccc2cc1CNc1ccc(F)cc1F
Out: 84.1

In: Respond only with viability at 28.5 h, 10 µM recorded for CN(C)CCNC(=O)Cn1c(-c2cccs2)cc2cccnc21
Out: 92.6

In: Respond only with viability at 28.5 h, 10 µM recorded for Cc1cc(NC(=O)c2cccc(C(F)(F)F)c2)nc2c1c(=O)oc1ccccc12
Out: 101

In: Respond only with viability at 28.5 h, 10 µM recorded for Cc1cc(CC(=O)N/N=C/c2ccccc2)[nH]n1
Out: 99.8

In: Respond only with viability at 28.5 h, 10 µM recorded for CCCC(C(=O)NCCN(C)C1CCCCC1)n1nc(C)cc1C (stereo not drawn)
Out: 96.4

In: Respond only with viability at 28.5 h, 10 µM recorded for O=C(O)c1ccccc1NS(=O)(=O)Cc1ccccc1[N+](=O)[O-]
Out: 91.9

In: Respond only with viability at 28.5 h, 10 µM recorded for CC(=O)Nc1ccc(S(=O)(=O)N2CCN(S(=O)(=O)c3ccccc3[N+](=O)[O-])CC2)cc1
Out: 104

In: Respond only with viability at 28.5 h, 10 µM recorded for CSc1ncc(C(=O)N2CCC(N3CCCC(CO)C3)CC2)c(=O)[nH]1 (stereo not drawn)
Out: 90.3

In: Respond only with viability at 28.5 h, 10 µM recorded for COc1ccc(CCC(=O)Nc2ccccc2N2CCCNCC2)cc1 [CBK024286T]
Out: 101

In: Respond only with viability at 28.5 h, 10 µM recorded for Nc1nc(C2CC(N)C2)cc(N2CCC(Oc3ccccc3F)CC2)n1 (stereo not drawn)
Out: 85.5

In: Respond only with viability at 28.5 h, 10 µM recorded for O=C(c1cc(F)c(F)cc1F)N1CCC2(CCN(Cc3nc4ccccc4[nH]3)C2)C1 (stereo not drawn)
Out: 89.9

In: Respond only with viability at 28.5 h, 10 µM recorded for Cc1ccc(OCC(=O)NC(=S)Nc2ccc(Cl)c(-c3nc4ncccc4o3)c2)cc1
Out: 103

In: Respond only with viability at 28.5 h, 10 µM recorded for Ic1ccc2ncnc(NCCN3CCOCC3)c2c1
Out: 108
